Listed here: items and their measured shrunken log2 fold change.
- System: Escherichia coli TOP10;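 also: peptides expressed intracellularly from a pBAD plasmid library in pooled LB shake-flask culture, induced with 0.3% L-arabinose, DNA abundance read by NGS, three biological replicates, DESeq2 with apeglm shrinkage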
- Measurement description: shrunken log2 fold change of peptide-encoding DNA abundance (4.5 h post-induction vs induction); higher = less antimicrobial activity (less host growth inhibition)
- Test context: time post-induction: 4.5 h; library: site-saturation at positions 5, 18, 19, 20
Number, no unit, nothing else.

The following sequences have reported results that may help.
{"columns": ["Monomer sequence", "Measured value"],
 "data": [
  ["RRIRNRPPRLPRPRPRPENWPRP", 0.0185],
  ["RRIRARPPRLPRPRPRPKNVPRP", 0.166],
  ["RRIRRRPPRLPRPRPRPLTNPRP", -0.16],
  ["RRIRYRPPRLPRPRPRPTQHPRP", -0.309],
  ["RRIRIRPPRLPRPRPRPPLHPRP", 0.0232],
  ["RRIRRRPPRLPRPRPRPSMQPRP", 0.404]
]}

Ask: Supply measured shrunken log2 fold change of RRIRGRPPRLPRPRPRPISMPRP in your reply.
Result: -0.0173

Ask: Supply measured shrunken log2 fold change of RRIRCRPPRLPRPRPRPMQCPRP in your reply.
Result: 0.0136

Ask: Supply measured shrunken log2 fold change of RRIRTRPPRLPRPRPRPHIRPRP in your reply.
Result: -0.271
